This collection of values is drawn from patent US11839616B2.

assay: tissue levels by LC/MS following chronic administration
Format: in vivo
experimental_parameters: retina, topical, rabbit, 3 nmol twice-daily for 28 days, read-out: level in retina, equivalent concentration
reported_property: concentration at 28 days

Query: Please look up its concentration at 28 days: CNc1nc(Nc2ccccc2)nc(OCC(F)(F)C(F)F)n1
Response: < 10 nM

* * *

assay_target: CFTR (Oryctolagus cuniculus, UniProt Q00554)
Construct: ocular surface PD measurements provide information about CFTR function in its native environment; from tissue; host or cells: rabbit ocular surface in vivo (cornea and conjunctiva); freshly isolated rabbit forniceal and palpebral conjunctiva
Sequence (Q00554 whole entry): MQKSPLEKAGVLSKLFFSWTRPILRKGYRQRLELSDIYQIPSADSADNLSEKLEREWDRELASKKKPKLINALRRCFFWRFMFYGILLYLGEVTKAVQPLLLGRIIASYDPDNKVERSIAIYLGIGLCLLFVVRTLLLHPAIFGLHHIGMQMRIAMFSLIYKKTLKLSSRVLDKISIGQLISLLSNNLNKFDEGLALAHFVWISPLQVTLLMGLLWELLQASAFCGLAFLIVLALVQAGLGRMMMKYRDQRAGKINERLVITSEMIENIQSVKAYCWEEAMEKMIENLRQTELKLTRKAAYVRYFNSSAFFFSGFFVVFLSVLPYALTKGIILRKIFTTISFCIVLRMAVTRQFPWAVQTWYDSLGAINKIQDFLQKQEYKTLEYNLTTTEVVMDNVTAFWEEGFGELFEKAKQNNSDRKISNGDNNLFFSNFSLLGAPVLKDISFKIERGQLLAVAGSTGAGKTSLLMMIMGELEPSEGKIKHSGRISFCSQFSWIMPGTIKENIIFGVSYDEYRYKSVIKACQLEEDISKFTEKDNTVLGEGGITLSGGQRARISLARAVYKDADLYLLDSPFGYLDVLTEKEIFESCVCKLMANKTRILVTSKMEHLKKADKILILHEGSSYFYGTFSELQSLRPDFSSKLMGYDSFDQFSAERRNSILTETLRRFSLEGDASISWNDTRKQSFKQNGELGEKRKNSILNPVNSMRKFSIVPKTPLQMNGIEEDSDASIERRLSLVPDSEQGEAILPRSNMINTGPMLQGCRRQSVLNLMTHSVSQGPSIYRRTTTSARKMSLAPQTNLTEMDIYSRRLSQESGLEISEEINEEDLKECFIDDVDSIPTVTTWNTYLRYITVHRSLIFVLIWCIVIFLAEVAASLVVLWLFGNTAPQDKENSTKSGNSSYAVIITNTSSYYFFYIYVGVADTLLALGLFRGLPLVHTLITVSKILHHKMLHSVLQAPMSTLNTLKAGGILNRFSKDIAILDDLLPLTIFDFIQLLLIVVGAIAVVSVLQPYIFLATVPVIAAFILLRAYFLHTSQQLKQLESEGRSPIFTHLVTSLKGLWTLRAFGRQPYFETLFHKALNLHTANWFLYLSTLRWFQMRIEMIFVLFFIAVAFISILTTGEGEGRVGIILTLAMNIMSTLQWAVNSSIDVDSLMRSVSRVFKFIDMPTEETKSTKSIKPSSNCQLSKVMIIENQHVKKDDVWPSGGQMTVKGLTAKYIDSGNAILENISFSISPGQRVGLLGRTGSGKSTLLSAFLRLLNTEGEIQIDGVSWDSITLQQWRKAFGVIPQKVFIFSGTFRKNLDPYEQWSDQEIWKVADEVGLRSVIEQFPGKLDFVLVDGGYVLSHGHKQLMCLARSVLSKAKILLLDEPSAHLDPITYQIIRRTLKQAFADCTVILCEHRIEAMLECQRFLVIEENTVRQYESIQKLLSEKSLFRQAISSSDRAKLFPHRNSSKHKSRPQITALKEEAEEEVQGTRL
assay: short-circuit current in freshly isolated rabbit conjunctiva, CFTR
Assay type: cell-based
experimental_parameters: rabbit conjunctiva ex vivo, data at 1 vs. 10 μM; read-out: apparent EC50 of CFTR activation (short-circuit current)
pEC50: −log10 of the molar value.
reported_property: pEC50

Query: Please look up its pEC50: CNc1nc(Nc2ccccc2)nc(OCC(F)(F)C(F)F)n1 [Compound A]
Response: > 6.00
